- system_under_test: Ribosomal protein S6 kinase alpha-4 (Homo sapiens) (UniProt O75676);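 further: mean inhibition of MSK2, GSK PKIS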
- Sequence (O75676 whole entry, looked up): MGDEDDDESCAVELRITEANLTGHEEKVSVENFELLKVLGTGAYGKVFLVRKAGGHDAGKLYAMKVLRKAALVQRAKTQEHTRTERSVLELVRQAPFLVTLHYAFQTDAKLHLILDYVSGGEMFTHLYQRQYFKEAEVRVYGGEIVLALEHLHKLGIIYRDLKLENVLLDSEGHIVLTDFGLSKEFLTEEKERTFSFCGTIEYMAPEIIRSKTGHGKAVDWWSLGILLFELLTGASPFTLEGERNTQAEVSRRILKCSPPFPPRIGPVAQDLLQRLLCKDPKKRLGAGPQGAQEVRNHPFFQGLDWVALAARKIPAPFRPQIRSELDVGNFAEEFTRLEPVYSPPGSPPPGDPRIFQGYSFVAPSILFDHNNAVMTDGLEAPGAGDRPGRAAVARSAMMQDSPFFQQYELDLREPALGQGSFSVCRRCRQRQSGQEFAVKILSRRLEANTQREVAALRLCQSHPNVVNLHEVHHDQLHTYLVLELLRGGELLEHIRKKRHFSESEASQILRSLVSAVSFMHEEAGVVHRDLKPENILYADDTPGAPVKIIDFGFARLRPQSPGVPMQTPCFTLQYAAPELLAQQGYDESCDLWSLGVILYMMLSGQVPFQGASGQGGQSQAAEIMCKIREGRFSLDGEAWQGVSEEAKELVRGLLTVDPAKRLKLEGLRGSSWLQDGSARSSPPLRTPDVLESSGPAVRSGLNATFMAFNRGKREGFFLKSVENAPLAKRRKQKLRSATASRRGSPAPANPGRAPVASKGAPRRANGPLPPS
- run_conditions: at 1 µM
endpoint_label: inhibition (%)
Give bare numbers, in %.

                                 molecule  endpoint_label  numeric_result
0  O=C(Nc1n[nH]c2cc(-c3ccccc3)ccc12)C1CC1      inhibition            1.76

Hi, could you look up inhibition for each item in my list?
1. Clc1ccc(CNc2nccc(-c3cnn4ncccc34)n2)cc1
2. COc1cccc(/C=N/Nc2ncnc3c2cnn3-c2cccc(OC)c2)c1
3. CN(c1ccc(NC(=O)Nc2c(Cl)cccc2Cl)cc1)c1ccnc(Nc2cccc(CS(C)(=O)=O)c2)n1
4. Nc1nccc(-c2c(-c3ccc(F)cc3)ncn2C2CCC(O)CC2)n1 (stereo not given)

1.71
2.78
4.1
-0.73

Origin of measurements: ChEMBL document CHEMBL1961873
